Ref: PubChem BioAssay (NCATS)

tested on: ATS189; experiment: qHTS profiling for inhibitors of Plasmodium falciparum proliferation (AID 504749); note: nearly all actives have a fitted effect of over 60% in size; settings: P. falciparum in erythrocytes, SYBR Green DNA, 72 h; series mostly up to 28.7 µM
Inconclusive results are not listed. Activity calls are given as the source filed them. Calls come from the whole dose curve; as a rule, active = well fitted inhibition curve with a large enough effect; inconclusive = small, poorly fitted or top-dose-only effect; inactive = flat fitted curve, though single readings scatter. Numbered stars: 1 amine (or outer) side, 2 acyl side, 3 side chain; on linkers, the order of the positions; unused ones are H or OH. Bridge positions count the residues as written; N and C are the ends. Square brackets hold non-standard residues; d marks the D form. Peptide text beside a SMILES is read from it. I, II: the chains in the order shown. Actinocin(9to1) = Cc1c2oc3c(C)ccc(C(=O)[*:1])c3nc-2c(C(=O)[*:2])c(N)c1=O; NMeV = CN[C@H](C(=O)O)C(C)C; Sar = CNCC(=O)O
Labels: YES for active, NO for inactive

Compound: COc1ccc(CCN2CCC(Nc3nc4ccccc4n3Cc3ccc(F)cc3)CC2)cc1
Assigned label: YES

Compound: CCN1CCCC1=O
Assigned label: NO

Compound: CCCN1CCCC[C@H]1C(=O)Nc1c(C)cccc1C
Assigned label: NO

Compound: NCCC(O)(P(=O)(O)O)P(=O)(O)O
Assigned label: NO

Compound: N[C@H](Cc1c[nH]c2ccccc12)C(=O)O
Assigned label: NO

Compound: CN1CCN(CCCN2c3ccccc3Sc3ccc(S(=O)(=O)N(C)C)cc32)CC1
Assigned label: YES

Compound: Cc1c(C(N)=O)cc([N+](=O)[O-])cc1[N+](=O)[O-]
Assigned label: NO

Compound: Cc1c(F)c(N2CCNC(C)C2)cc2c1c(=O)c(C(=O)O)cn2C1CC1 (configuration not stated)
Assigned label: NO

Compound: CC(O)(P(=O)(O)O)P(=O)(O)O
Assigned label: NO

Compound: O=C(O)CCCCC(=O)O
Assigned label: NO

Compound: O=C(Nc1ccc(Oc2ccc(Cl)cc2)c(Cl)c1)c1cc(I)cc(I)c1O
Assigned label: NO

Compound: CCOC(=O)OC(C)OC1=C(C(=O)Nc2ccccn2)N(C)S(=O)(=O)c2ccccc21 (configuration not stated)
Assigned label: NO

Compound: CCC(C(=O)OCCN(CC)CC)c1ccccc1 (configuration not stated)
Assigned label: NO

Compound: O=c1ccc2ccccc2o1
Assigned label: NO

Compound: CN1CCC(=C2c3ccccc3Sc3ccccc32)CC1
Assigned label: YES

Compound: O=C(O)CNC(=O)c1ccccc1
Assigned label: NO

Compound: Cc1c(C(C)C)c(=O)n(-c2ccccc2)n1C
Assigned label: NO

Compound: C[C@]12CC[C@@H]3c4ccc(O)cc4CC[C@H]3[C@@H]1CC[C@@H]2O
Assigned label: NO

Compound: Cc1c2oc3c(C)ccc(C(=O)N[C@@H]4C(=O)N[C@H](C(C)C)C(=O)N5CCC[C@H]5C(=O)N(C)CC(=O)N(C)[C@@H](C(C)C)C(=O)O[C@@H]4C)c3nc-2c(C(=O)N[C@@H]2C(=O)N[C@H](C(C)C)C(=O)N3CCC[C@H]3C(=O)N(C)CC(=O)N(C)[C@@H](C(C)C)C(=O)O[C@@H]2C)c(N)c1=O (I: T[dV]P[Sar][NMeV] / II: T[dV]P[Sar][NMeV]; ester I:1-I:C, II:1-II:C; linker I:N-II:N via Actinocin(9to1))
Assigned label: YES

Compound: CCCCCCCCCCCCCCCC[N+](C)(C)CCN(Cc1ccc(OC)cc1)c1ncccn1
Assigned label: NO

Compound: CCOc1ccc2nc3cc(N)ccc3c(N)c2c1
Assigned label: YES

Compound: COc1ccc(CN2CCN(C(c3ccc(F)cc3)c3ccc(F)cc3)CC2)c(OC)c1OC
Assigned label: YES

Compound: CCOc1ccc(Cc2nccc3cc(OCC)c(OCC)cc23)cc1OCC
Assigned label: NO

Compound: COc1cc(-c2ccc(=O)[nH]n2)ccc1OC(F)F
Assigned label: NO

Compound: CC(Cc1cccc(C(F)(F)F)c1)NCCOC(=O)c1ccccc1 (configuration not stated)
Assigned label: NO

Compound: COc1cc(C(=S)N2CCOCC2)cc(OC)c1OC
Assigned label: NO

Compound: CCOC(=O)COc1ccc2c(C)c(CCN(CC)CC)c(=O)oc2c1Cl
Assigned label: NO

Compound: O=C1[C@H]2CCCC[C@H]2C(=O)N1CCCCN1CCN(c2nsc3ccccc23)CC1
Assigned label: NO

Compound: O=c1c(-c2ccccc2)c1-c1ccccc1
Assigned label: YES

Compound: C[C@H]1[C@H](NC(=O)/C(=N/OC(C)(C)C(=O)O)c2csc(N)n2)C(=O)N1S(=O)(=O)O (stereo in doubt)
Assigned label: NO

Compound: CC(=O)OCC(=O)[C@@]1(OC(C)=O)[C@@H](C)C[C@H]2[C@@H]3C[C@H](F)C4=CC(=O)C=C[C@]4(C)[C@@]3(F)[C@@H](O)C[C@@]21C
Assigned label: NO

Compound: NC(CO)(CO)CO
Assigned label: NO

Compound: CCCCCCCCCCCCCCCC[N+](C)(C)CC
Assigned label: YES

Compound: C#C[C@]1(OC(C)=O)CC[C@H]2[C@@H]3CCC4=C[C@@H](OC(C)=O)CC[C@@H]4[C@H]3CC[C@@]21C
Assigned label: NO

Compound: CCCCC1=NC2(CCCC2)C(=O)N1Cc1ccc(-c2ccccc2-c2nn[nH]n2)cc1
Assigned label: NO

Compound: COc1c(C)c2c(c(O)c1C/C=C(\C)CCC(=O)O)C(=O)OC2
Assigned label: YES

Compound: Oc1ccc(Cl)c2cccnc12
Assigned label: NO

Compound: CCN1CCN(c2cc3c(cc2F)c(=O)c(C(=O)O)cn3C2CC2)CC1
Assigned label: NO

Compound: COc1cc(NS(C)(=O)=O)ccc1Nc1c2ccccc2nc2ccccc12
Assigned label: YES

Compound: CCC(=O)c1c(O)cc(O)cc1O
Assigned label: NO

Compound: Cc1c(C)n(CCN(C)C)c2ccc(C(=O)OCCN(C)C)cc12
Assigned label: NO

Compound: C[C@@H]1C(=O)NC2=Nc3cccc(Cl)c3CN21
Assigned label: NO
